# Test system: 786-O
# Assay Comment: GI50 of drug in presence of dasatinib; higher = less potent
# Measurement Conditions: treatment: drug + dasatinib (fixed dose, not stated); 5 days
Reported Property: GI50 of drug (nM)

Recorded GI50 of drug, per entry:
• Cc1cc(Nc2cc(N3CCN(C)CC3)nc(Sc3ccc(NC(=O)C4CC4)cc3)n2)n[nH]1 [VX-680 (MK-0457, Tozasertib)] + Cc1nc(Nc2ncc(C(=O)Nc3c(C)cccc3Cl)s2)cc(N2CCN(CCO)CC2)n1 [dasatinib] = 152
• COC[C@H]1OC(=O)c2coc3c2[C@@]1(C)C1=C(C3=O)[C@@H]2CCC(=O)[C@@]2(C)C[C@@H]1OC(C)=O [Wortmannin] + Cc1nc(Nc2ncc(C(=O)Nc3c(C)cccc3Cl)s2)cc(N2CCN(CCO)CC2)n1 [dasatinib] = 32.5
• C[C@@H](Oc1cc(-c2cnn(C3CCNCC3)c2)cnc1N)c1c(Cl)ccc(F)c1Cl + Cc1nc(Nc2ncc(C(=O)Nc3c(C)cccc3Cl)s2)cc(N2CCN(CCO)CC2)n1 [dasatinib] = 798

(a) Nc1nc(N)c2nc(-c3cccc(O)c3)cnc2n1 + Cc1nc(Nc2ncc(C(=O)Nc3c(C)cccc3Cl)s2)cc(N2CCN(CCO)CC2)n1 [dasatinib]
(b) FC(F)c1nc2ccccc2n1-c1nc(N2CCOCC2)nc(N2CCOCC2)n1 [ZSTK474] + Cc1nc(Nc2ncc(C(=O)Nc3c(C)cccc3Cl)s2)cc(N2CCN(CCO)CC2)n1 [dasatinib]
Incoming: Lab note: check whether a or b has the lower measured GI50 of drug. Identify your pick by its label.
Outgoing: b

----------
# Test system: TK-10
# Assay Comment: minimum viability across doses, drug + dasatinib, relative to DMSO (fraction); higher = less growth inhibition
# Measurement Conditions: treatment: drug + dasatinib (fixed dose, not stated); 5 days
In this section we review reported minimum viability across doses values for a set of molecules.
Just the number.

Examples with answers:
- CC1(C)CCC(c2ccc(Cl)cc2)=C(CN2CCN(c3ccc(C(=O)NS(=O)(=O)c4ccc(N[C@H](CCN5CCOCC5)CSc5ccccc5)c(S(=O)(=O)C(F)(F)F)c4)cc3)CC2)C1 [ABT-263 (Navitoclax)] + Cc1nc(Nc2ncc(C(=O)Nc3c(C)cccc3Cl)s2)cc(N2CCN(CCO)CC2)n1: 0.0882
- CS(=O)(=O)O.N#CC1(c2ccc(NC(=O)c3cccnc3NCc3ccncc3)cc2)CCCC1 [Apatinib (YN968D1)] + Cc1nc(Nc2ncc(C(=O)Nc3c(C)cccc3Cl)s2)cc(N2CCN(CCO)CC2)n1: 0.636
- CC(C)(O)CC(=O)NCCn1ccc2ncnc(Nc3ccc(Oc4cccc(C(F)(F)F)c4)c(Cl)c3)c21 [TAK-285] + Cc1nc(Nc2ncc(C(=O)Nc3c(C)cccc3Cl)s2)cc(N2CCN(CCO)CC2)n1: 0.346

# ---- query molecule ----
Per the records, this molecule ( C=CC(=O)Nc1cccc(Oc2nc(Nc3ccc(N4CCN(C)CC4)cc3OC)ncc2Cl)c1 [WZ4002] + Cc1nc(Nc2ncc(C(=O)Nc3c(C)cccc3Cl)s2)cc(N2CCN(CCO)CC2)n1 ) has minimum viability across doses equal to 0.0404

----------
# Test system: ACHN
# Assay Comment: GI50, drug alone; higher = less potent
# Measurement Conditions: treatment: drug alone; 5 days
Reported Property: GI50, drug alone (µM)

# example entries with known answers
- NC(=O)Nc1cc(-c2cccc(F)c2)sc1C(=O)N[C@H]1CCCNC1: 0.0173
- COc1ccc(C2=NC(c3ccc(Cl)cc3)C(c3ccc(Cl)cc3)N2C(=O)N2CCNC(=O)C2)c(OC(C)C)c1 (stereo unspecified): 5.64
- COc1ccc(S(=O)(=O)N(C(C)=O)c2ccccc2/C=C/c2cc[n+]([O-])cc2)cc1: 0.262

(P) C#Cc1cccc(Nc2ncnc3cc(OCCOC)c(OCCO)cc23)c1
(Q) COc1cccc2cc(-c3nc([C@H]4CC[C@H](C(=O)O)CC4)n4ncnc(N)c34)[nH]c12
Incoming: // select label with min value of measured GI50, drug alone from [ P , Q ] // return label of chosen record
Outgoing: P
(P: 0.472 µM, Q: 1.91 µM)

(a) O=C(NCCCNc1nc(Nc2cccc(NC(=O)N3CCCC3)c2)ncc1I)c1cccs1
(b) CN1CCN(CCOc2cc(OC3CCOCC3)c3c(Nc4c(Cl)ccc5c4OCO5)ncnc3c2)CC1
(c) Cc1ccc(F)c(NC(=O)Nc2ccc(-c3cccc4[nH]nc(N)c34)cc2)c1
(d) COC1=CC(c2cc3ccccc3[nH]2)=N/C1=C\c1[nH]c(C)cc1C.CS(=O)(=O)O [Obatoclax mesylate (GX15-070)]
Incoming: Provide the items ranked by increasing GI50, drug alone. Write out the labels following the order that was asked for.
Outgoing: d, b, a, c
(d: 0.0811 µM, b: 1.03 µM, a: 2.94 µM, c: 7.46 µM)

(I) S=C(NCc1ccc2c(c1)OCO2)N1CCN(c2ncnc3c2oc2ccccc23)CC1
(II) O=C1NCCc2[nH]c(-c3ccncc3)cc21
Incoming: Compare I and II by numeric GI50, drug alone and name the larger one. Identify your pick by its label.
Outgoing: I
(I: 2.42 µM, II: 1.67 µM)

(A) CNC(=O)c1ccc(C)c(-n2c(C)cc(OCc3ccc(F)cc3F)c(Br)c2=O)c1
(B) NC(=O)Nc1sc(-c2ccc(F)cc2)cc1C(N)=O
Incoming: Smaller GI50, drug alone value? Options are A and B Choose, then provide that item's label.
Outgoing: B
